Test: NCI Yeast Anticancer Drug Screen. Data for the sgs1 mgt1 strain (AID 161);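 note: 0% = growth of cultures given vehicle only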
Settings: S. cerevisiae sgs1 mgt1 strain, at 50.0 µM (retest, dose inferred, filed as 5.0), active compounds read high
About 79,000 compounds went through this panel and 15% of them were active in at least one assay; those are over-represented in the sample as a whole.
MEASURED_METRIC: growth inhibition (%)
Report as a plain number; the unit % is understood.

Before answering, review these 4 worked examples.
* CC1Cc2cc(O)c(O)cc2-c2cc(O)c(O)cc2CC1C (configuration not stated) | 75
* COC(=O)c1ccc(C)cc1CC1Cc2cc(C)ccc2C1=O (configuration not stated) | 68
* CCCCCCCCCCCC1=NCC(C)N1 (configuration not stated) | 1
* C/C(=N/O)c1cccc(C(F)(F)F)c1 | -63

Q: Any idea what its growth inhibition is? The compound is O=C(Nc1nc2ccc([N+](=O)[O-])cc2s1)C(=O)C(C1OC(=O)c2ccccc21)[N+](=O)[O-] (configuration not stated)
Ans: 9

Q: Fill in: growth inhibition of Nc1ccccc1Sc1ccc(F)cc1[N+](=O)[O-] is ___
Ans: 76

Q: Which value of growth inhibition has been reported for Cc1c(-c2ccccc2)ccnc1/C=N/NC(=S)Nc1ccccc1 in the records?
Ans: 88

Q: Given the entry Fc1ccc(NC(=S)SCc2ccc(Cl)cc2)c(F)c1 , report its measured growth inhibition.
Ans: 99

Q: What measured growth inhibition goes with O=C1CCCC2c3ccccc3NC12 (configuration not stated) ?
Ans: -64

---

Experiment: NCI Yeast Anticancer Drug Screen. Data for the cln2 rad14 strain (AID 165);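 note: 0% = growth equal to vehicle treated cultures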
Conditions: S. cerevisiae cln2 rad14 strain, at 5.0 µM (retest, dose inferred, filed as 0.5), active compounds read high
This is part of a sample that, as a whole, favours compounds with a hit. Of some 79,000 tested, about 15% had one in any assay.
// reported growth inhibition for each item listed
Express the result in % but write the number alone.

Some solved cases for reference:
* O=S(=O)(CC(Br)c1ccccc1)CC(Br)c1ccccc1 (configuration not stated) | -3
* Cc1cccc(N2CCN(CC(O)COc3ccc4ccccc4c3)CC2)c1 (configuration not stated) | -4
* CCn1c2ccccc2c(=O)c2c(OC)ccc(OC)c21 | -1
* CCC1C(c2ccccc2O)c2cc3c(cc2OC1N1CCOCC1)OCO3 (configuration not stated) | 9
* COc1ccc(C)cc1NC(=O)ON=C1CCCCC1 | 38
* CCOCCNCc1ccc(Cl)c(Cl)c1 | -51

Q: Reported growth inhibition for Cc1ccc(Sc2ccc(C)cc2[N+](=O)[O-])c([N+](=O)[O-])c1 : what is it?
Ans: 39

Q: Could you tell me which growth inhibition is on file for O=[N+]([O-])c1cc2ccc(O)cc2c2ccccc12 ?
Ans: -1

Q: Look at this molecule and give its reported growth inhibition. c1ccc(Nc2cccc3ccccc23)cc1
Ans: -1

Q: GET /values?readout=growth inhibition&item= CCCCCCCCCCCCCCCCNCCCCCCCC(=O)O
Ans: 7

Q: Which value of growth inhibition has been reported for COc1ccc2ccc(=O)oc2c1CC=C(C)C in the records?
Ans: 7

Q: Given O=C(c1ccc(Cl)c([N+](=O)[O-])c1)c1ccc(Cl)c([N+](=O)[O-])c1 , state its recorded growth inhibition.
Ans: 1

---

Overview of reported growth inhibition across a group of molecules:
Assay: NCI Yeast Anticancer Drug Screen. Data for the bub3 strain (AID 167)
Conditions: S. cerevisiae bub3 mutant strain, at 5.0 µM (retest, dose inferred, filed as 0.5), active compounds read high
Protocol: Growth inhibition of yeast strains with defined genetic alterations is measured as a screen for potential anti-cancer activity. Selected strains with alterations in DNA damage repair or cell cycle control were exposed to compounds and growth inhibition was measured relative to vehicle treated controls. The strain used in this assay is bub3
About 79,000 compounds went through this panel and 15% of them were active in at least one assay; those are over-represented in the sample as a whole.
Record the value in %, omitting the unit from your answer.

Solved cases below.
- CCCCCCCCCCCCOc1c(Cl)cc(Cl)c(Cl)c1Cc1c(O)c(Cl)cc(Cl)c1Cl: 0
- C1Cc2c3c4c(c5c2C(C1)CCC5)CCCC4CCC3: 15
- COc1ccc2ccc(OC)c(C=O)c2c1: -67
- COC(=O)C1=C(C)NC(c2ccc(OC)cc2OC)C(C(=O)OC)=C1C (stereo unspecified): 1
- OC(c1ccccc1)(c1ccccc1)c1ccc[cH-]1.OC(c1ccccc1)(c1ccccc1)c1ccc[cH-]1.[Fe+2]: 3

// next entry
Q: Suppose we examine the molecule O=C(CCC(NC(=O)OCc1ccccc1)C(=O)OCc1ccccc1)NC(CSCc1ccccc1)C(=O)NCC(=O)Oc1c(Cl)c(Cl)c(Cl)c(Cl)c1Cl (stereo unspecified) ; what growth inhibition value has been reported?
Ans: 3
